run description: Unbound AUC in Sprague-Dawley rat at 1 mg/kg/day, iv measured for 24 hrs by LC-MS/MS analysis
Assay type: ADME, organism-based
assay setup: in vivo
assay endpoint: fAUC (µM·min)

Consider the following illustrative entries.
• COc1cncc(-c2cn(C(C)n3ccc(N4CCC[C@@H](NCC5CCC5)C4)cc3=O)nn2)n1 (some centres undefined) = 6.1
• COc1cc(-c2cn(C(C)n3ccc(N4CCC[C@@H](NCC5CCC5)C4)cc3=O)nn2)c2cn[nH]c2c1 (some centres undefined) = 0.9
• C[C@@H](n1cc(-c2cncc(N(C)C)c2)nn1)n1ccc(N2CCC[C@@H](NCC3CC3)C2)cc1=O = 5.1
• CC(n1cc(-c2cncc(-n3cccn3)c2)nn1)n1ccc(N2CCC[C@@H](NCC3CCC3)C2)cc1=O (some centres undefined) = 3.3

[a] CC(n1cc(-c2cncc(N3CCCC3)c2)nn1)n1ccc(N2CCC[C@@H](NCC3CCC3)C2)cc1=O (some centres undefined)
[b] COc1cncc(-c2cn(Cc3ccc(N4CCC[C@@H](NCC5CCC5)C4)cn3)nn2)c1
IN: Please indicate which has the smaller reported fAUC: a , or b . Record your answer as the label of the chosen record.
OUT: a
(a: 1 µM·min, b: 2.4 µM·min)

----------
run description: Stability in human hepatocytes assessed as half life
Assay type: ADME, cell-based, Hepatocyte
assay endpoint: half-life

IN: Look up half-life of C[C@@H](n1cc(-c2cncc(N(C)C)c2)nn1)n1ccc(N2CCC[C@@H](NCC3CC3)C2)cc1=O and report it.
OUT: > 4 h

----------
run description: Unbound fraction in Sprague-Dawley rat plasma at 1 mg/kg/day, iv measured for 24 hrs by LC-MS/MS analysis
Assay type: ADME, organism-based
assay setup: in vivo
assay endpoint: Fu (%)

- COc1cncc(-c2cn(C(C)c3ccc(N4CCC[C@@H](NCC5CCC5)C4)nn3)nn2)c1 (some centres undefined): 14
- CCC(c1ccc(N2CCC[C@@H](NCC3CCC3)C2)nn1)n1cc(-c2cncc(OC)c2)nn1 (some centres undefined): 11.2
- COc1cncc(-c2cn(Cc3ccc(N4CCC[C@@H](NCC5CCC5)C4)nn3)nn2)c1: 11.1
- COc1cncc(-c2cn(C(C)c3ccc(N4CCC[C@@H](NCC5CCC5)C4)cn3)nn2)c1 (some centres undefined): 14.1
- COc1cncc(-c2cn(Cn3ccc(N4CCC[C@@H](NCC5CCC5)C4)cc3=O)nn2)c1: 9.3

[P] COc1cncc(-c2cn(C(C)(C)c3ccc(N4CCC[C@@H](NCC5CCC5)C4)nn3)nn2)c1
[Q] COc1cncc(-c2cn(Cc3ccc(N4CCC[C@@H](NCC5CCC5)C4)cn3)nn2)c1
[R] C[C@@H](n1cc(-c2cncc(N(C)C)c2)nn1)n1ccc(N2CCC[C@@H](NCC3CC3)C2)cc1=O
IN: Form: Sort by [Fu] Order [ ascending ] Kindly provide the labels arranged according to the requested ordering.
OUT: Q, P, R
(Q: 8.9%, P: 15.3%, R: 23%)

----------
run description: Lipophilicity, logD of compound in 1-octanol/PBS at pH 7.4 incubated for 24 hrs by HPLC analysis
Assay type: physicochemical
assay endpoint: logD at 24 h

Previously resolved entries follow.
- COc1cncc(-c2cn(Cc3ccc(N4CCC[C@@H](CNC5CCC5)C4)nn3)nn2)c1: 0.88
- CC(n1cc(-c2cncc(-n3cccn3)c2)nn1)n1ccc(N2CCC[C@@H](NCC3CCC3)C2)cc1=O (stereo not given in full): 1.8
- COc1cc(-c2cn(Cc3ccc(N4CCC[C@@H](NC(C)C5CCC5)C4)nn3)nn2)c2cn[nH]c2c1 (stereo not given in full): 2.14

[a] COc1cncc(-c2cn(Cc3ccc(N4CCC[C@@H](NCC5CCC5)C4)cc3)nn2)c1
[b] COc1cc(-c2cn(Cc3ccc(N4CCC[C@@H](N)C4)nn3)nn2)c2cn[nH]c2c1
[c] COc1cc(-c2cn(Cc3ccc(N4CCC[C@@H](NC5CC56CCC6)C4)nn3)nn2)c2cn[nH]c2c1 (stereo not given in full)
IN: Endpoint returns the given molecules ordered by ascending logD at 24 h. Sort the labels as requested; that list is your answer.
OUT: b, a, c
(b: 1.01, a: 2.04, c: 3.06)

Sourced from ChEMBL document CHEMBL6121062
